# tested_on: Transcriptional activator protein LuxR (Aliivibrio fischeri)
# test_description: Antagonist activity at Vibrio fischeri ESI 114 (delta-LuxI) LuxR assessed as inhibition of OHHL-induced quorum sensing activation at 10 uM relative to untreated control
# Format: functional
measured_quantity: inhibition (%)

smiles_structure: CCOC(=O)CNC(=O)Cc1ccc(SC(F)(F)F)cc1
measured_quantity: inhibition
unit_descriptor: %
measured_result: 43

(P) CCOC(=O)CNC(=O)Cc1cccc([N+](=O)[O-])c1
(Q) CCCCCCCCCC(=O)CC(=O)NCCC1=CCCCC1
Prompt line: Could you point out whether the larger inhibition belongs to P or to Q ? Your answer should be the label attached to the chosen record.
Response line: Q
